Target: acetylcholine receptor
Test: SPR, AchR immobilised, peptide 10 uM
Result type: Binding affinity (RU)

KKIDKR [6mer-1-619]
23
RKNPVR [6mer-1-609]
24
RRCTMK [6mer-1-1113]
28

[a] RKEANK [6mer-1-1086]
[b] RKCAFR [6mer-1-1115]
Of the two listed items, which has the higher Binding affinity (RU)? First: a Second: b Select an item and report its label.
b

Cited source: patent US20250011363A1
